Molecular target: cAMP and cAMP-inhibited cGMP 3',5'-cyclic phosphodiesterase 10A (Homo sapiens, UniProt Q9Y233)
Sequence (Q9Y233 whole entry): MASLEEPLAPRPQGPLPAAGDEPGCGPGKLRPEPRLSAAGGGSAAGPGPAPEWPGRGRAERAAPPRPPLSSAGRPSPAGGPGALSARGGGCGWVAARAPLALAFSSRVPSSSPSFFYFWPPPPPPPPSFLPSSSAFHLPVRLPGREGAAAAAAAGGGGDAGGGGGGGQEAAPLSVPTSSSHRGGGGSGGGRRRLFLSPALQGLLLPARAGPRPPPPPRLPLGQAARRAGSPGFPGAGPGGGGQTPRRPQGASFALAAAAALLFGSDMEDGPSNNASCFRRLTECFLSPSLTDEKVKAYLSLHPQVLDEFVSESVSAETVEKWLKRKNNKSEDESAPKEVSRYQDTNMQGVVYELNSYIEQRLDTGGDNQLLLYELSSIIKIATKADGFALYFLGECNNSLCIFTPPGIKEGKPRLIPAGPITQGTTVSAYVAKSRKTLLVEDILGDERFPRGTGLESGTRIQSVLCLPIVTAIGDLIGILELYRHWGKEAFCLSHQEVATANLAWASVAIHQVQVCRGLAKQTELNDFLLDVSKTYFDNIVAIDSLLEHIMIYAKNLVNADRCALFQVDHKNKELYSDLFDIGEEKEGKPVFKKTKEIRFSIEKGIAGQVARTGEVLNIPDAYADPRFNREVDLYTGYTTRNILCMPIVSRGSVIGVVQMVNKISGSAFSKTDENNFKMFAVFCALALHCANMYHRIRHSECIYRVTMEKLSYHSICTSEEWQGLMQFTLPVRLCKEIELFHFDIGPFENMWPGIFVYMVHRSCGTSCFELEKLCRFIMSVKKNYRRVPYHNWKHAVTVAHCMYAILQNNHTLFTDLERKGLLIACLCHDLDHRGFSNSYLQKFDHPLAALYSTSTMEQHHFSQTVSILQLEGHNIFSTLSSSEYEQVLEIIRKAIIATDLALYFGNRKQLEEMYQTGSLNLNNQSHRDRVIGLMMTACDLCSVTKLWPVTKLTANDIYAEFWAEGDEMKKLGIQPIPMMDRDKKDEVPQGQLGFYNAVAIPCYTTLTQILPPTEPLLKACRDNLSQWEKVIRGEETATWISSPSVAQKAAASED
Assay: Inhibition of human PDE10A2 transfected in AD293 cells by IMAP FP assay
pKi: −log10 of the molar value.
Measurement label: pKi

Field: example entries. Status: answers known.
stdin: Which value of pKi has been reported for Cc1c(Cl)nc(C2CC2)nc1Cl in the records?
stdout: 5.06

stdin: Follow-up item: Cc1ccc(CNc2nc(C3CC3)nc(Cl)c2C)cn1
stdout: 6.89

stdin: Now try Cc1nc(C)c(CNc2nc(OCCC3CCCCC3)nc(Cl)c2C)s1 .
stdout: 6.40

stdin: Entry Cc1nc(C)c(CNc2nc(OCCC3CCCCN3)nc(Cl)c2C)s1 (stereo unspecified) please
stdout: 6.23

a. Cc1nc(C)c(CNc2nc(OCCc3ccccc3)nc(Cl)c2C)s1
b. Cc1c(Cl)nc(C2CC2)nc1NC(C)C
stdin: Larger number for pKi: a , or b ? Please identify the chosen entry by its label.
stdout: a
(a: 8.05, b: 5.44)

====

Species on record: Homo sapiens
Test: Selectivity ratio of Ki for human PDE3A to Ki for human PDE10A2
Measurement label: Ratio Ki

A. Cc1c(Cl)nc(C2CC2)nc1Cl
B. CCCNc1nc(C2CC2)nc(Cl)c1C
stdin: For the two items A and B , which reports the higher Ratio Ki value? State your choice using its label.
stdout: B

====

Species: Homo sapiens
Assay: Selectivity ratio of Ki for human PDE5A1 to Ki for human PDE10A2
Measurement label: Ratio Ki

stdin: Fill in: Ratio Ki of CCCNc1nc(C2CC2)nc(Cl)c1C is ___
stdout: 1

1. Cc1nc(C)c(CNc2nc(C3CC3)nc(Cl)c2C)s1
2. Cc1c(Cl)nc(C2CC2)nc1Cl
stdin: Endpoint returns the identifier whose Ratio Ki is numerically larger, either 1 or 2 . I would appreciate it if you answered with the label of your choice.
stdout: 1
(1: 100, 2: 1)

====

Target: UniProt Q9Y233
Test: Inhibition of human PDE10A2 transfected in AD293 cells by IMAP FP assay
pKi: −log10 of the molar value.
Measurement label: pKi

a. Cc1nc(C)c(CNc2nc(OCCCc3nc4ccccc4s3)nc(Cl)c2C)s1
b. Cc1nc(CNc2nc(C3CC3)nc(Cl)c2C)cs1
stdin: Among a and b , whose measured pKi is the smaller figure? # reply format: chosen label
stdout: b

1. Cc1nc(C)c(CNc2nc(OCCCc3ccc4cccnc4n3)nc(Cl)c2C)s1
2. Cc1c(Cl)nc(C2CC2)nc1NCc1ccoc1
stdin: Select one. Lower pKi: 1 or 2 Reply with the label of the item you choose.
stdout: 2

====

Biological target: cAMP and cAMP-inhibited cGMP 3',5'-cyclic phosphodiesterase 10A (Homo sapiens, UniProt Q9Y233)
Assay: Inhibition of human PDE10A2 transfected in AD293 cells by IMAP FP assay
pKi: −log10 of the molar value.
Measurement label: pKi

Example entries and their recorded answers appear below.
stdin: Look up pKi: Cc1nc2c(s1)CN(c1nc(C3CC3)nc(Cl)c1C)CC2
stdout: 5.89

stdin: Similarly, Cc1c(N)nc(C2CC2)nc1Cl ?
stdout: 5.66

stdin: What about Cc1nc(C)c(CNc2nc(OCCO)nc(Cl)c2C)s1 ?
stdout: 7.92

stdin: Same question, Cc1nc(C)c(CNc2nc(OCCCc3cnc4ccccc4n3)nc(Cl)c2C)s1 this time
stdout: 9.43

stdin: Queued: Cc1c(Cl)nc(C2CC2)nc1N(C)Cc1cnn(C)c1
stdout: 6.66

stdin: Another compound to check: Cc1c(Cl)nc(C2CC2)nc1NCc1cnn(C)c1
stdout: 7.43

stdin: Cc1nc(C)c(CNc2nc(OCCc3ccccn3)nc(Cl)c2C)s1 ?
stdout: 8.70

stdin: Would you mind doing Cc1c(Cl)nc(C2CC2)nc1NC1CCCC1 as well?
stdout: 5.55

stdin: Can you check CCNc1nc(C2CC2)nc(Cl)c1C next?
stdout: 5.92

a. Cc1c(Cl)nc(C2CC2)nc1N1CCCC1
b. Cc1nc(C)c(CNc2nc(OCCCc3ccc4ccccc4n3)nc(Cl)c2C)s1
c. Cc1c(Cl)nc(C2CC2)nc1N1CCCCC1
stdin: Form: Sort by [pKi] Order [ ascending ] Present the labels in the sequence the task asks for.
stdout: a, c, b
(a: 5.28, c: 5.68, b: 11.09)

====

Species on record: Homo sapiens
Experiment: Selectivity ratio of Ki for human PDE1A to Ki for human PDE10A2
Measurement label: Ratio Ki

1. CCCNc1nc(C2CC2)nc(Cl)c1C
2. Cc1c(Cl)nc(C2CC2)nc1Cl
stdin: So which one has the bigger Ratio Ki here, 1 or 2 ? Please respond with the label that marks your chosen entry.
stdout: 1

====

Biological target: cAMP and cAMP-inhibited cGMP 3',5'-cyclic phosphodiesterase 10A (Homo sapiens, UniProt Q9Y233)
Experiment: Inhibition of human PDE10A2 transfected in AD293 cells by IMAP FP assay
pKi: −log10 of the molar value.
Measurement label: pKi

Example entries begin here.
stdin: Given Cc1cc(CNc2nc(C3CC3)nc(Cl)c2C)no1 , state its recorded pKi.
stdout: 7.29

stdin: Would you mind doing COc1ncc(CNc2nc(C3CC3)nc(Cl)c2C)s1 as well?
stdout: 8.00

stdin: Again, but for CCCNc1nc(C2CC2)nc(Cl)c1C
stdout: 6.06

stdin: Try COc1nc(Cl)c(C)c(NCc2sc(C)nc2C)n1 next.
stdout: 8.07

stdin: Quick one: Cc1nc(C)c(CNc2nc(OCCCc3cn4ccccc4n3)nc(Cl)c2C)s1
stdout: 10.33

P. Cc1nc(C)c(CNc2nc(C3CC3)nc(Cl)c2C)s1
Q. Cc1csc(CNc2nc(C3CC3)nc(Cl)c2C)n1
R. Cc1c(Cl)nc(C2CC2)nc1NC(C)c1ccncc1 (racemic)
S. Cc1cc(CN(C)c2nc(C3CC3)nc(Cl)c2C)on1
stdin: In this exercise, place the 4 molecules in ascending sequence of their recorded pKi. The reply should contain the labels ordered as requested.
stdout: Q, R, S, P
(Q: 5.17, R: 6.05, S: 6.27, P: 8.32)

====

Biological target: cAMP and cAMP-inhibited cGMP 3',5'-cyclic phosphodiesterase 10A (Homo sapiens, UniProt Q9Y233)
Assay: Inhibition of human PDE10A2 transfected in AD293 cells by IMAP FP assay
pKi: −log10 of the molar value.
Measurement label: pKi

Field: example entries. Status: answers known.
stdin: pKi for Cc1c(Cl)nc(C2CC2)nc1NCc1ccncc1 ?
stdout: 6.70

stdin: Subsequent entry: C=C(F)CNc1nc(C2CC2)nc(Cl)c1C
stdout: 6.74

stdin: Please do the same for Cc1ncsc1CNc1nc(C2CC2)nc(Cl)c1C as well.
stdout: 5.80

stdin: Field entry: Cc1c(Cl)nc(C2CC2)nc1NCc1cccnc1
stdout: 6.00

stdin: Next molecule: Cc1c(Cl)nc(C2CC2)nc1NCc1cncs1
stdout: 6.00

P. Cc1c(Cl)nc(C2CC2)nc1NCc1ccccc1
Q. Cc1nc(C)c(CNc2nc(OCCCc3nc4ccccc4[nH]3)nc(Cl)c2C)s1
R. Cc1c(Cl)nc(C2CC2)nc1NCc1ccon1
stdin: // sort entries: pKi, high to low Use the labels to give the ranking in the order requested.
stdout: Q, R, P

====

Test: Plasma concentration in Wistar Hannover rat at 1 mg/kg, ip measured after 3.5 hrs
Format: ADME, organism-based
Measurement label: concentration at 3.5 h (nM)
Respond with the bare value in nM.

stdin: concentration at 3.5 h lookup needed for Cc1nc(C)c(CNc2nc(OCCCc3ccc4ccccc4n3)nc(Cl)c2C)s1 , thanks.
stdout: 17

====

Species: Homo sapiens
Assay: Selectivity ratio of Ki for human PDE8A1 to Ki for human PDE10A2
Measurement label: Ratio Ki

1. CCCNc1nc(C2CC2)nc(Cl)c1C
2. Cc1c(Cl)nc(C2CC2)nc1Cl
stdin: When their Ratio Ki values are compared, which is larger, 1 or 2 ? Pick one; state its label.
stdout: 1
(1: 25, 2: 1)

====

Species on record: Homo sapiens
Test: Selectivity ratio of Ki for human PDE9A2 to Ki for human PDE10A2
Measurement label: Ratio Ki

a. Cc1c(Cl)nc(C2CC2)nc1Cl
b. CCCNc1nc(C2CC2)nc(Cl)c1C
stdin: Record comparison, field Ratio Ki: mark the lower of a and b . Reply briefly: the label of your chosen item.
stdout: a
(a: 1, b: 25)

====

Experiment: Selectivity ratio of Ki for rhesus monkey PDE2A3 to Ki for human PDE10A2
Measurement label: Ratio Ki

1. Cc1c(Cl)nc(C2CC2)nc1Cl
2. CCCNc1nc(C2CC2)nc(Cl)c1C
stdin: Response body: label of entry with the larger Ratio Ki; valid values 1 , 2 . Please indicate the selected item by its label.
stdout: 2
(2: 100, 1: 1)

====

Species: Homo sapiens
Test: Selectivity ratio of Ki for human PDE11A4 to Ki for human PDE10A2
Measurement label: Ratio Ki

stdin: Bench note: what Ratio Ki did Cc1nc(C)c(CNc2nc(C3CC3)nc(Cl)c2C)s1 show?
stdout: 25

I. CCCNc1nc(C2CC2)nc(Cl)c1C
II. Cc1c(Cl)nc(C2CC2)nc1Cl
stdin: Smaller Ratio Ki value? Options are I and II Respond using the label that marks the chosen record.
stdout: II
(II: 1, I: 25)

Recorded values, source ChEMBL document CHEMBL3621123.
